B1: Pistol ribozyme (parent)
chain: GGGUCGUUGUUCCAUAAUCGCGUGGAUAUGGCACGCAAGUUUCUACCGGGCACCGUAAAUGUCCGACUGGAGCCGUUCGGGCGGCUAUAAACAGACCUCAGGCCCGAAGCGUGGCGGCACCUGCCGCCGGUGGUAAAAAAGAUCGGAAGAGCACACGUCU

# Variants of: B1
# METHOD_DESCRIPTION: aptazyme ON/OFF ratio, guanine; higher = stronger switching; co-transcriptional cleavage with and without guanine

>  <VARIANT_NOTATION>
U8G G9C U10A U11A C13U

>  <aptazyme ON/OFF ratio>
1.15

$$$$
>  <VARIANT_NOTATION>
U7A U10G U11G C13G

>  <aptazyme ON/OFF ratio>
1.16

$$$$
>  <VARIANT_NOTATION>
U7G G9C C12U

>  <aptazyme ON/OFF ratio>
1.79

$$$$
>  <VARIANT_NOTATION>
U7C U8A G9U U11A C12G C13U

>  <aptazyme ON/OFF ratio>
1.15

$$$$
>  <VARIANT_NOTATION>
G9A C12A C13U

>  <aptazyme ON/OFF ratio>
1.38

$$$$
>  <VARIANT_NOTATION>
U8A G9C U10G C12U

>  <aptazyme ON/OFF ratio>
1.28

$$$$
>  <VARIANT_NOTATION>
U8G G9A U11C C12U C13G

>  <aptazyme ON/OFF ratio>
1.27

$$$$
>  <VARIANT_NOTATION>
U7C U8A G9C C12A

>  <aptazyme ON/OFF ratio>
1.17

$$$$
>  <VARIANT_NOTATION>
U7G U10A U11C C12U C13A

>  <aptazyme ON/OFF ratio>
1.12

$$$$
>  <VARIANT_NOTATION>
U7C G9C C12A C13G

>  <aptazyme ON/OFF ratio>
1.07

$$$$
>  <VARIANT_NOTATION>
U7C U8C G9A U11C C12G C13G

>  <aptazyme ON/OFF ratio>
1.29

$$$$
>  <VARIANT_NOTATION>
U7C U8C G9U U11G C12G C13G

>  <aptazyme ON/OFF ratio>
1.14

$$$$
>  <VARIANT_NOTATION>
U7A G9C U10C U11G C12A C13G

>  <aptazyme ON/OFF ratio>
1.05

$$$$
>  <VARIANT_NOTATION>
U7A U8G U10A U11A C12A C13G

>  <aptazyme ON/OFF ratio>
1.38

$$$$
>  <VARIANT_NOTATION>
U7A U8C G9C U10A U11A C12G

>  <aptazyme ON/OFF ratio>
1.13

$$$$
>  <VARIANT_NOTATION>
U7A U8C G9C U10A U11A

>  <aptazyme ON/OFF ratio>
1.07

$$$$
>  <VARIANT_NOTATION>
U7G U8C G9A U11A C12U

>  <aptazyme ON/OFF ratio>
1.36

$$$$
>  <VARIANT_NOTATION>
U8C G9U U10A U11G C12U C13U

>  <aptazyme ON/OFF ratio>
1.2

$$$$
>  <VARIANT_NOTATION>
U7C U8A U10C C12G C13A

>  <aptazyme ON/OFF ratio>
1.19

$$$$
>  <VARIANT_NOTATION>
U7A U8C U10G C12A C13A

>  <aptazyme ON/OFF ratio>
1.13

$$$$
>  <VARIANT_NOTATION>
U7A U8G U11C

>  <aptazyme ON/OFF ratio>
1.32

$$$$
>  <VARIANT_NOTATION>
U7A U8C G9C U10A U11A C12G C13U

>  <aptazyme ON/OFF ratio>
1.07

$$$$
